system: Saccharomyces cerevisiae BY4741 SeMeCo community; assay: z-score of subpopulation abundance vs DMSO median, subpopulation auxotrophic for LUM; higher = larger share of this subpopulation than in DMSO controls; conditions: 10 µM; 24 h; SM minimal medium; subpopulation (auxotrophy): LUM
Counter-ions that a name gives are not always drawn.
Measure name: z-score of subpopulation abundance
Answer with the value's number alone.

For the compound shown here, COCCCOc1ccnc(C[S+]([O-])c2nc3ccccc3[nH]2)c1C (stereo unspecified) [Rebeprazole sodium] , give the reported z-score of subpopulation abundance.
0.11

For the compound shown here, CCCCCNC(=N)N/N=C/c1c[nH]c2ccc(OC)cc12 [Tegaserod Maleate] , give the reported z-score of subpopulation abundance.
1.92

For the compound shown here, CO/N=C(\C(=O)N[C@@H]1C(=O)N2C(C(=O)O)=CCS[C@H]12)c1csc(N)n1 [Ceftizoxime] , give the reported z-score of subpopulation abundance.
-0.44

For the compound shown here, C[C@@H](c1ncncc1F)[C@](O)(Cn1cncn1)c1ccc(F)cc1F , give the reported z-score of subpopulation abundance.
5.58

For the compound shown here, NC12CC3CC(CC(C3)C1)C2 [Amantadine HCl] , give the reported z-score of subpopulation abundance.
-0.72

For the compound shown here, O=C(N[C@H](CO)[C@H](O)c1ccc([N+](=O)[O-])cc1)C(Cl)Cl , give the reported z-score of subpopulation abundance.
0.23

For the compound shown here, O=C(O)c1cc(-c2ccc(F)cc2F)ccc1O , give the reported z-score of subpopulation abundance.
-1.08

For the compound shown here, Nc1nnc(-c2cccc(Cl)c2Cl)c(N)n1 , give the reported z-score of subpopulation abundance.
1.86

For the compound shown here, COc1ccccc1N1CCN(CCCNc2cc(=O)n(C)c(=O)n2C)CC1 [Urapidil HCl] , give the reported z-score of subpopulation abundance.
-0.71

For the compound shown here, Nc1ccc(S(=O)(=O)Nc2ncccn2)cc1 [Sodium sulfadiazine] , give the reported z-score of subpopulation abundance.
0.15

For the compound shown here, Cn1cc(C(=O)[C@@H]2CCc3[nH]cnc3C2)c2ccccc21 [Ramosetron Hydrochloride] , give the reported z-score of subpopulation abundance.
0.32

For the compound shown here, O=C(Cn1cnnn1)N[C@@H]1C(=O)N2C(C(=O)O)=C(CSc3nncs3)CS[C@H]12 [Ceftezole sodium] , give the reported z-score of subpopulation abundance.
0.36

For the compound shown here, OC(c1cc(C(F)(F)F)nc2c(C(F)(F)F)cccc12)C1CCCCN1 (stereo unspecified) [Mefloquine HCl] , give the reported z-score of subpopulation abundance.
0.86

For the compound shown here, CCN(CC)CCOCCOC(=O)C1(c2ccccc2)CCCC1 [Pentoxyverine Citrate] , give the reported z-score of subpopulation abundance.
-0.26

For the compound shown here, CN[C@H](CC(C)C)C(=O)N[C@H]1C(=O)N[C@@H](CC(N)=O)C(=O)N[C@H]2C(=O)N[C@H]3C(=O)N[C@H](C(=O)N[C@H](C(=O)O)c4cc(O)cc(O)c4-c4cc3ccc4O)[C@H](O)c3ccc(c(Cl)c3)Oc3cc2cc(c3O[C@@H]2O[C@H](CO)[C@@H](O)[C@H](O)[C@H]2O[C@H]2C[C@](C)(N)[C@H](O)[C@H](C)O2)Oc2ccc(cc2Cl)[C@H]1O [Vancomycin HCl] , give the reported z-score of subpopulation abundance.
-0.38

For the compound shown here, CC[C@H](C)C(=O)O[C@H]1C[C@H](O)C=C2C=C[C@H](C)[C@H](CC[C@@H](O)C[C@@H](O)CC(=O)O)[C@H]21 [Pravastatin sodium] , give the reported z-score of subpopulation abundance.
0.57

For the compound shown here, CCOC(=O)C1=C(COCCN)NC(C)=C(C(=O)OC)[C@@H]1c1ccccc1Cl , give the reported z-score of subpopulation abundance.
-4.52

For the compound shown here, C#C[C@]1(O)CC[C@H]2[C@@H]3CCc4cc(OC)ccc4[C@H]3CC[C@@]21C , give the reported z-score of subpopulation abundance.
-0.31

For the compound shown here, CCCCC(F)(F)[C@@]1(O)CC[C@H]2[C@@H](CC(=O)[C@@H]2CCCCCCC(=O)O)O1 , give the reported z-score of subpopulation abundance.
-0.67

For the compound shown here, Cc1cccc(N(C)C(=S)Oc2ccc3ccccc3c2)c1 [Tolnaftate] , give the reported z-score of subpopulation abundance.
-0.11

For the compound shown here, O=C1[C@@H]2[C@H]3CC[C@H](C3)[C@@H]2C(=O)N1C[C@@H]1CCCC[C@H]1CN1CCN(c2nsc3ccccc23)CC1 , give the reported z-score of subpopulation abundance.
-0.46

* * *

tested on: Saccharomyces cerevisiae BY4741 SeMeCo community; test: z-score of subpopulation abundance vs DMSO median, subpopulation auxotrophic for HL; higher = larger share of this subpopulation than in DMSO controls; conditions: 10 µM; 24 h; SM minimal medium; subpopulation (auxotrophy): HL
Structures can show the parent of a compound that is named as a salt.
Label Y when z-score of subpopulation abundance is at or above 0.5; anything below gets N.

Assess whether reported z-score of subpopulation abundance for O=C1c2cccc3c2[C@H](CCC3)CN1[C@@H]1CN2CCC1CC2 [Palonosetron HCl] sits at 0.5 or higher.
N

Assess whether reported z-score of subpopulation abundance for Cc1nc(C)c(Cl)c(O)c1Cl sits at 0.5 or higher.
N

Assess whether reported z-score of subpopulation abundance for CCCCCCCCN=c1ccn(CCCCCCCCCCn2ccc(=NCCCCCCCC)cc2)cc1 [Octenidine Dihydrochloride] sits at 0.5 or higher.
Y

Assess whether reported z-score of subpopulation abundance for CN(C)CCCC1(c2ccc(F)cc2)OCc2cc(C#N)ccc21 (configuration not stated) sits at 0.5 or higher.
N

Assess whether reported z-score of subpopulation abundance for C#C[C@]1(OC(C)=O)CC[C@H]2[C@@H]3CCC4=C[C@@H](OC(C)=O)CC[C@@H]4[C@H]3CC[C@@]21C [Ethynodiol diacetate] sits at 0.5 or higher.
Y

Assess whether reported z-score of subpopulation abundance for CN1C[C@@H]2C[C@H]1CN2c1cc2c(cc1F)c(=O)c(C(=O)O)cn2C1CC1 [Danofloxacin Mesylate] sits at 0.5 or higher.
N

Assess whether reported z-score of subpopulation abundance for COc1ccc2cc(CCC(C)=O)ccc2c1 sits at 0.5 or higher.
N

Assess whether reported z-score of subpopulation abundance for CN(C)CCC=C1c2ccccc2C=Cc2ccccc21 [Cyclobenzaprine HCl] sits at 0.5 or higher.
N

Assess whether reported z-score of subpopulation abundance for CN1CCN(CC(=O)N2c3ccccc3C(=O)Nc3cccnc32)CC1 [Pirenzepine dihydrochloride] sits at 0.5 or higher.
N

Assess whether reported z-score of subpopulation abundance for CN(C)CCn1nnnc1SCC1=C(C(=O)O)N2C(=O)[C@@H](NC(=O)Cc3csc(N)n3)[C@H]2SC1 [Cefotiam hydrochloride] sits at 0.5 or higher.
Y

Assess whether reported z-score of subpopulation abundance for CO/N=C(\C(=O)N[C@@H]1C(=O)N2C(C(=O)O)=C(COC(C)=O)CS[C@H]12)c1csc(N)n1 [Cefotaxime sodium] sits at 0.5 or higher.
N

* * *

tested on: Saccharomyces cerevisiae BY4741 SeMeCo community; assay: z-score of subpopulation abundance vs DMSO median, subpopulation auxotrophic for H; higher = larger share of this subpopulation than in DMSO controls; settings: 10 µM; 24 h; SM minimal medium; subpopulation (auxotrophy): H
Structures can show the parent of a compound that is named as a salt.
I'd be grateful if you could share measured z-score of subpopulation abundance for these entries.
Answer with the value's number alone.

For the molecule shown here, C=CCCCCCCCCC(=O)[O-].C=CCCCCCCCCC(=O)[O-].[Zn+2] [Zinc Undecylenate] , give the reported z-score of subpopulation abundance.
-1.44

For the molecule shown here, O=C1NC(=O)C(c2ccccc2)(c2ccccc2)N1 [Phenytoin] , give the reported z-score of subpopulation abundance.
-0.22

For the molecule shown here, N[C@H]1CONC1=O [L-Cycloserine] , give the reported z-score of subpopulation abundance.
5.08

For the molecule shown here, CC(C)COc1ccc(CNC(=O)N(Cc2ccc(F)cc2)C2CCN(C)CC2)cc1 [Pimavanserin] , give the reported z-score of subpopulation abundance.
-0.39

For the molecule shown here, CC(C)c1nc(N(C)S(C)(=O)=O)nc(-c2ccc(F)cc2)c1/C=C/[C@@H](O)C[C@@H](O)CC(=O)O [Rosuvastatin Calcium] , give the reported z-score of subpopulation abundance.
0.06

For the molecule shown here, CCN(CC)CCNC(=O)c1cc(S(C)(=O)=O)ccc1OC [Tiapride Hydrochloride] , give the reported z-score of subpopulation abundance.
0.23

For the molecule shown here, CCCCC(=O)O[C@H]1CC[C@H]2[C@@H]3CCc4cc(O)ccc4[C@H]3CC[C@]12C [Estradiol valerate] , give the reported z-score of subpopulation abundance.
-0.49

For the molecule shown here, Nc1ccc(S(=O)(=O)Nc2cnc3ccccc3n2)cc1 [Sulfaquinoxaline sodium] , give the reported z-score of subpopulation abundance.
-1.04

For the molecule shown here, CN[C@@H]1[C@H](O)[C@H](NC)[C@H]2O[C@@]3(O)C(=O)C[C@@H](C)O[C@H]3O[C@@H]2[C@H]1O [Spectinomycin 2HCl] , give the reported z-score of subpopulation abundance.
-0.79

For the molecule shown here, CN[C@@H]1[C@@H](O[C@H]2O[C@H](CO)[C@@H](N)[C@H](O)[C@H]2O)OC2C[C@@H](N)[C@@H](O[C@H]3[C@H](O)[C@@H](O)[C@H](N)C[C@@H]3N)OC2[C@@H]1O (stereo partly drawn) [Apramycin Sulfate] , give the reported z-score of subpopulation abundance.
-0.41

For the molecule shown here, CC1=C(C(=O)OCCN(Cc2ccccc2)c2ccccc2)C(c2cccc([N+](=O)[O-])c2)C(P2(=O)OCC(C)(C)CO2)=C(C)N1 (stereo not drawn) [Efonidipine] , give the reported z-score of subpopulation abundance.
1.79

For the molecule shown here, C[C@@H](c1ncncc1F)[C@](O)(Cn1cncn1)c1ccc(F)cc1F [Voriconazole] , give the reported z-score of subpopulation abundance.
12.8

For the molecule shown here, CN1CCN(c2c(F)cc3c(=O)c(C(=O)O)cn4c3c2OCN4C)CC1 [Marbofloxacin] , give the reported z-score of subpopulation abundance.
-1.41
